target: C-terminal deletion mutant ΔC1 of streptavidin C1 (amino acids 1-161) (Streptomyces cinnamonensis); test: MST; Monolith NT.115; 200 nM His-tag-labelled (RED-tris-NTA) ΔC1-His or ΔC2-His, unlabelled peptide 2.4414-80 000 nM, PBS with 0.05% Tween 20, 10 min at room temperature, measured at 25°C, 40% LED power, 60% MST power, triplicate
observationType: pKd
Recall that pKd is obtained by taking minus log10 of the concentration measured in molar.

Consider LGVTSANPPASDGE [ECP peptide (extension C-terminal peptide) of streptavidin C1] . Its measured pKd is 7.31

Consider SAADVEKARQLGVTSANPPASDGE [C-Lid_ECP peptide of streptavidin C1] . Its measured pKd is 4.68
